Test system: K562
Test: Percentage of the dead cells of K-562 cells was determined for the compound
Type: ADME, cell-based
Settings: human
metric: Dead cells (%)
Form entry: value (%) — number only.

INPUT: Fill in the blank: the reported Dead cells of COc1ccc(C(C#N)(CCCN(C)C2c3ccccc3-c3ccccc32)C(C)C)cc1OC.Cl (configuration not stated) is ____.
OUTPUT: 0

INPUT: Also, COc1ccc(C(C#N)(CCCN(C)CC23CC4CC(CC(C4)C2)C3)C(C)C)cc1OC.Cl (configuration not stated) please.
OUTPUT: 1

INPUT: Also, COc1ccc(C(C#N)(CC#CCNC(c2ccccc2)c2ccccc2)C(C)C)cc1OC.Cl (configuration not stated) please.
OUTPUT: 6

INPUT: Also, COc1ccc(C(C#N)(CC#CCN(C)C23CC4CC(CC(C4)C2)C3)C(C)C)cc1OC.Cl (configuration not stated) please.
OUTPUT: 0

INPUT: Also, COc1ccc(C(C#N)(CC#CCN(C)CC2c3ccccc3-c3ccccc32)C(C)C)cc1OC.Cl (configuration not stated) please.
OUTPUT: 30

INPUT: Also, Cl.N#CC(CCCNC1c2ccccc2CCc2ccccc21)(c1ccccc1)c1ccccc1 please.
OUTPUT: 3

INPUT: Also, COc1ccc(C(C#N)(CCCNC2c3ccccc3CCc3ccccc32)C(C)C)cc1OC.Cl (configuration not stated) please.
OUTPUT: 10

INPUT: Also, COc1ccc(C(C#N)(CCCN(C)Cc2c3ccccc3cc3ccccc23)C(C)C)cc1OC.Cl (configuration not stated) please.
OUTPUT: 3

INPUT: Also, C=CCNc1nc(NCC=C)nc(N2CCC(NCCCC(C#N)(c3ccc(OC)c(OC)c3)C(C)C)CC2)n1.Cl (configuration not stated) please.
OUTPUT: 0

INPUT: Also, COc1ccc(C(C#N)(CC#CCNC2c3ccccc3-c3ccccc32)C(C)C)cc1OC.Cl (configuration not stated) please.
OUTPUT: 10

INPUT: Also, COc1ccc(C(C#N)(CCCNC2c3ccccc3-c3ccccc32)C(C)C)cc1OC.Cl (configuration not stated) please.
OUTPUT: 0

INPUT: Also, Cl.N#CC(CCCNC12CC3CC(CC(C3)C1)C2)(c1ccccc1)c1ccccc1 please.
OUTPUT: 0

INPUT: Also, COc1ccc(C(C#N)(CCCN(C)CC2c3ccccc3-c3ccccc32)C(C)C)cc1OC.Cl (configuration not stated) please.
OUTPUT: 3

INPUT: Also, COc1ccc(C(C#N)(CCCNC23CC4CC(CC(C4)C2)C3)C(C)C)cc1OC.Cl (configuration not stated) please.
OUTPUT: 0

INPUT: Also, COc1ccc(C(C#N)(CCCNCC2c3ccccc3-c3ccccc32)C(C)C)cc1OC.Cl (configuration not stated) please.
OUTPUT: 100

INPUT: Also, COc1ccc(C(C#N)(CC#CCN(C)C2c3ccccc3-c3ccccc32)C(C)C)cc1OC.Cl (configuration not stated) please.
OUTPUT: 0

INPUT: Also, Cl.N#CC(CCCNC1c2ccccc2-c2ccccc21)(c1ccccc1)c1ccccc1 please.
OUTPUT: 0

INPUT: Also, COc1ccc(C(C#N)(CC#CCN(C)CC23CC4CC(CC(C4)C2)C3)C(C)C)cc1OC.Cl (configuration not stated) please.
OUTPUT: 0

INPUT: Also, COc1ccc(C(C#N)(CCCNCC(c2ccccc2)c2ccccc2)C(C)C)cc1OC.Cl (configuration not stated) please.
OUTPUT: 5

INPUT: Also, CN(CCCC(C#N)(c1ccccc1)c1ccccc1)C1c2ccccc2-c2ccccc21.Cl please.
OUTPUT: 3

INPUT: Also, COc1ccc(C(C#N)(CC#CCNCC(c2ccccc2)c2ccccc2)C(C)C)cc1OC.Cl (configuration not stated) please.
OUTPUT: 20

INPUT: Also, COc1ccc(C(C#N)(CCCNC(c2ccccc2)c2ccccc2)C(C)C)cc1OC.Cl (configuration not stated) please.
OUTPUT: 5
